Use 1 as the dividing line for log10 biodegradation half-life (days), with the line itself on the satisfied side and lower values as not satisfied.

Could you please find out whether Cc1cccc2c1ccc1ccccc12 has log10 biodegradation half-life (days) that meets 1 or exceeds it?
satisfied

Could you please find out whether CCCCC(C)C has log10 biodegradation half-life (days) that meets 1 or exceeds it?
not satisfied

Could you please find out whether c1ccc2c(c1)sc1ccccc12 has log10 biodegradation half-life (days) that meets 1 or exceeds it?
satisfied

Could you please find out whether c1ccc2c(c1)cc1ccc3cccc4ccc2c1c34 has log10 biodegradation half-life (days) that meets 1 or exceeds it?
satisfied

Could you please find out whether CC1=Cc2ccccc2C1 has log10 biodegradation half-life (days) that meets 1 or exceeds it?
not satisfied

Could you please find out whether CCCCCCCCCCCCCCCCCCCCCCCCCCCCCCC has log10 biodegradation half-life (days) that meets 1 or exceeds it?
satisfied

Could you please find out whether CCc1cccc(C)c1C has log10 biodegradation half-life (days) that meets 1 or exceeds it?
not satisfied

Could you please find out whether c1ccc2c(c1)CCC2 has log10 biodegradation half-life (days) that meets 1 or exceeds it?
not satisfied

Origin of the recorded values: the OPERA property sets (Mansouri et al. 2018)
